B1: ADD1 (parent)
chain: FASDGDSGTCSPLRHSFQKQQREK

Variants of: B1
Assay: protein stability index of a GFP-peptide fusion (GPS, HEK-293T) (PSI 1-6); higher = more stable;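 also: lentivirally expressed fusions sorted by FACS into six bins by GFP to DsRed ratio, PSI derived from sequencing read proportions per bin multiplied by bin number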
Conditions: c terminus: a fixed tail appended
Tag: T if measured protein stability index is not below 3, F if it is.

Some solved entries appear below for comparison.
1. S11W ... F
2. S3G ... T
3. K24L ... T
4. H15A ... T
5. Q18T ... T

Proceed to the following item.
Can C10A be said to have protein stability index at or above 3?
T
